system: CCRF-CEM; experiment: NCI tumour cell line growth inhibition, 48 h
Activity calls are given as the source filed them. Cut-off read from the data, not from the text of the source: active = GI50 up to about 1.1 µM and inactive = higher.
Your response should consist of one outcome taken from y (active), n (inactive)

Below are worked cases with known answers.
[in] So what was the verdict on "O=C/C1=C/C2=Cc3ccccc3C=C(/C=C(/C=O)C1)C2" in this test?
[out] n

[in] Hello, I am checking results. What call was entered for O=C1NC2c3c(I)sc(I)c3C(=O)C2O1 (stereo not given) ?
[out] n

[in] What outcome does the record of this test show for "Cc1nc(-c2ccc(/N=C/c3ccc(N(CCOS(C)(=O)=O)CCOS(C)(=O)=O)cc3C)cc2)cs1" ?
[out] n

[in] Dear all, I need the recorded test outcome for CCCCCCCCCCCCCCCC(=O)OC(COC(C)=O)CO[PH](=O)O (stereo not given) , thank you.
[out] n

Others:
[in] Please indicate how the test categorized "COc1ccc(NC(=O)CC/C(CC(=O)C(C)(C)C)=N\NC(=O)C(N)=O)cc1" .
[out] n

[in] Identify the outcome logged in this assay for the compound shown: "COc1cccc2cc(C(=O)O)c(=O)oc12"
[out] n

[in] Returns: the outcome recorded for O=C(CC1C(=O)Nc2ccccc2S1(=O)=O)Nc1ccc(Cl)cc1 (stereo not given) in this assay.
[out] n

[in] Outcome logged for COC1C=COC2(C)Oc3c(C)c(O)c4c(O)c(c(/C=N/N5CCN(N)CC5)c(O)c4c3C2=O)NC(=O)C(C)=CC=CC(C)C(O)C(C)C(O)C(C)C(OC(C)=O)C1C (stereo not given) in this assay:
[out] n
